- assay details: Inhibition of Clostridium botulinum A recombinant light chain protease LC/A by FRET assay
measure: pIC50
One number for each entry, as −log10 of the molar value.

List reported pIC50 for each of these molecules:
1. N#Cc1cc(Cl)ccc1/C=C/C(=O)NO
2. CS(=O)(=O)c1cc(Cl)ccc1/C=C/C(=O)NO
3. COc1cc(Cl)ccc1/C=C/C(=O)NO
4. CSc1cc(Cl)ccc1/C=C/C(=O)NO
5. O=C(/C=C/c1ccc(Cl)cc1[N+](=O)[O-])NO
6. O=C(NO)c1ccc2cc(Br)ccc2c1
7. O=C(NO)c1ccc2cc(Cl)ccc2c1
8. Nc1cc(Cl)ccc1/C=C/C(=O)NO

**Result**
4.92
4.77
5.05
5.29
5.70
4.15
4.68
4.60

Parameters: items (list). Returns: pIC50 for each item.
1. Cn1c(C(=O)NO)cc2ccc(Cl)cc21
2. O=C(/C=C/c1ccc(Cl)cc1O)NO
3. O=C(/C=C/c1ccc(Cl)cc1F)NO
4. O=C(/C=C/c1ccc(Cl)cc1C(F)(F)F)NO
5. O=C(NO)C1=Cc2ccc(Cl)cc2C1

**Result**
1. 4.42
2. 4.89
3. 5.36
4. 6.22
5. 4.39

Would you mind giving pIC50 for every molecule in the list below?
1. O=C(/C=C/c1ccc(Cl)cc1Br)NO
2. Cc1cc(Cl)ccc1/C=C/C(=O)NO
3. O=C(NO)c1cc2ccc(Cl)cc2s1
4. O=C(/C=C/c1ccc(Cl)cc1Cl)NO [CINNAMIC ACID HYDROXAMATE]

**Result**
[6.15, 6.10, 4.35, 6.05]
